- EXPERIMENT_NOTES: Apparent permeability of the compound by PAMPA assay
- Format: ADME
Examples of molecules with documented Papp follow.
Expressed in ×10⁻⁶ cm/s, but write only the number.

ITEM_SMILES: CCNc1cccc(Nc2nc3c(s2)CCCc2n[nH]cc2-3)n1
UNIT_TEXT: ×10⁻⁶ cm/s
Papp: 3.1

# Papp (molecule: Cc1cc(Nc2nc3c(s2)CCCc2[nH]ncc2-3)[nH]n1 ) is 15

# Papp (molecule: c1cncc(Nc2nc3c(s2)CCCc2[nH]ncc2-3)c1 ) is 35

# Papp (molecule: Fc1ccc(Nc2nc3c(s2)CCCc2[nH]ncc2-3)nc1 ) is 0.3

# Papp (molecule: c1ccc(Nc2nc3c(s2)CCCc2[nH]ncc2-3)nc1 ) is 9.4

# Papp (molecule: c1cncc(Nc2nc3c(s2)CCc2[nH]ncc2-3)c1 ) is 18.7
